These entries and their values trace back to the Biogen ADME set (Fang et al. 2023).

observation_type: MDR1-MDCK efflux ratio

                                   compound  measured
0    CN1CCN(C2=c3ccccc3=Nc3ccc(Cl)cc3N2)CC1       0.8
1  Cc1nnc(CN(C)CC(C)Oc2ccc(Cl)c(Cl)c2)n1C (stereo not given)      7.09

I = Cn1cc(C#N)cc1-c1nc(C2CC2)nn1CCc1ccccc1
II = CCN(c1cc(-c2ccc(CN3CCOCC3)cc2)cc(C(=O)NCc2c(C)cc(C)nc2O)c1C)C1CCOCC1
III = Cc1ccc(-c2nc3ccccc3[nH]2)cc1NS(=O)(=O)c1ccc(Cl)cc1
Query :: Sort low-to-high on MDR1-MDCK efflux ratio, please. In your reply, arrange the labels in the requested order.
Result :: I, III, II
(I: 0.932, III: 4.88, II: 60.3)

---

Details: pH 6.8
observation_type: aqueous solubility (µg/mL)

                              record_smiles    observation_type  unit_string  measured
0                CNC(=O)CN(C)c1cccc(F)c1C#N  aqueous solubility        µg/mL      34.1
1          CN1CCC(NC(=O)COc2ccc(C#N)cc2)CC1  aqueous solubility        µg/mL      35.2
2  COc1ccc(C)cc1-n1ccc(C(=O)Nc2c3c(nn2C)CCC3)n1  aqueous solubility        µg/mL      33.2

1 = COCC1(c2nc(-c3ccncc3)nn2Cc2cccc(Cl)c2)CC1
2 = COc1cc(CNC(=O)NC2CCCCC2)cc(OC)c1O
Query :: Two entries are listed, 1 and 2 . Which one carries the higher aqueous solubility? Please identify the chosen entry by its label.
Result :: 2
(2: 78 µg/mL, 1: 28 µg/mL)

A = CSCCc1nc(-c2cc(C)nc3cc(F)ccc23)n(CCO)n1
B = CCn1c(COC(=O)c2ccc(C)s2)nc2cc(S(=O)(=O)N3CCCCC3)ccc21
C = COc1ccc(CNC(=O)c2nnn(-c3ccc(OC)cc3)c2N)cc1
Query :: List from greatest to least aqueous solubility. The labels, placed in the requested order, form the answer.
Result :: A, C, B
(A: 24 µg/mL, C: 11.5 µg/mL, B: 1.04 µg/mL)

P = C=C(C)COc1cccc(C(=O)NCc2nncn2C2CCCCC2)c1
Q = N#Cc1ccc(NS(=O)(=O)c2c[nH]c3nc(Cl)ccc23)c(F)c1
R = COc1cccc(/C=C2/N=C(c3ccccc3)NC2=O)c1OC
S = CC(=O)N1CCCN(C(=O)Cc2csc(C(C)C)n2)CC1
Query :: Please list the entries, largest aqueous solubility first. Order the labels as requested and list them.
Result :: S, P, Q, R

---

observation_type: MDR1-MDCK efflux ratio

Examples with their reported MDR1-MDCK efflux ratio follow.
In [3]: df
Out[3]:
                              record_smiles  measured
0             Cc1cc(C(=O)NCCc2ccccn2)c(C)s1     0.639
1  CSc1ccc(C(=O)Nc2cccc(C(=O)NCC(C)C)c2)cc1      1.59
2          O=C(CCn1nnc2ccccc2c1=O)Nc1ccncc1      4.06
3       CS(=O)(=O)NCCN1CCc2c(Cl)cc(Cl)cc2C1     0.707

A = Cn1cc(NC(=O)c2ccc(OCC3CCOCC3)nc2)cn1
B = Cc1ccc(C(=O)N(C)Cc2c(C)noc2C)cn1
Query :: // pick min by MDR1-MDCK efflux ratio: A , B Respond with the label that goes with your answer.
Result :: B

---

observation_type: intrinsic clearance, human liver microsomes (mL/min/kg)

Before answering, review these 2 worked examples.
>>> df
                                compound  measured
0  O=c1c2sccc2nc2n1CCN(Cc1ccc(F)cc1F)CC2      57.9
1  CCCn1cc(NC(=O)Nc2ccc(N3CCSCC3)cc2)cn1      44.4

I = N#CC1(C(=O)N2CCN(Cc3ccccn3)CC2)CCCCC1
II = Cc1cc(F)ccc1-c1nc(CCn2c(C)nc3ccccc32)no1
Query :: Of I and II , whose reported intrinsic clearance, human liver microsomes is the larger number? Provide the label of your selected option as the answer.
Result :: II

1 = CC1CCN(C(=O)CCn2ccc3ccncc32)CC1
2 = COc1cc(NC(=O)c2ccc(F)cc2C)ncn1
3 = COc1ccnc(N2CCCN(Cc3ccccc3C)CC2)n1
4 = N#Cc1ccc(CNc2cnc3ccccc3c2)o1
Query :: With regard to intrinsic clearance, human liver microsomes, arrange the entries in ascending order, please. The reply should contain the labels ordered as requested.
Result :: 2, 1, 4, 3
(2: 8.37 mL/min/kg, 1: 119 mL/min/kg, 4: 187 mL/min/kg, 3: 756 mL/min/kg)

P = CN1CCc2nc(NC(=O)c3ccc(Cl)s3)sc2C1
Q = CC(=O)N1CCN([C@H]2CCN(C(=O)c3cc4cc(Cl)ccc4o3)CC[C@@H]2O)CC1
Query :: Would you kindly point out which of P and Q has the smaller intrinsic clearance, human liver microsomes figure? Field: selected label. Fill in the label of the entry you choose.
Result :: Q
(Q: 8.04 mL/min/kg, P: 20 mL/min/kg)

I = Clc1cccc(-c2nnc(Cn3cnc4ccccc43)o2)c1
II = Cc1ccnc(NC(=O)c2ccnc(C)n2)c1
Query :: Of I and II , whose reported intrinsic clearance, human liver microsomes is numerically smaller? Identify your pick by its label.
Result :: I
(I: 7.23 mL/min/kg, II: 137 mL/min/kg)

a = Cc1cc(C(=O)NC2CCN(C(=O)c3cc(C)sc3C)CC2)no1
b = Cc1cc(Nc2ccc(F)cn2)cc(C2CCN(C(=O)CCn3ncc4ccccc43)C2)n1 (centres undefined)
c = CN(Cc1n[nH]c2c1CCCC2)c1nccnc1C#N
Query :: Sort by intrinsic clearance, human liver microsomes, descending. The labels, placed in the requested order, form the answer.
Result :: b, c, a

P = c1nc(N2CCC3(CCCCC3)C2)c2cn[nH]c2n1
Q = CCc1ccccc1NC(=O)Cn1nc(C)cc1C
R = Cc1ccc(-c2nnc([C@H]3CCN(Cc4cc5ccccc5o4)C3)o2)cc1
Query :: Arrange the 3 compounds from largest to smallest intrinsic clearance, human liver microsomes. Show the ranking through the labels, in the order asked for.
Result :: R, Q, P
(R: 49.2 mL/min/kg, Q: 25.2 mL/min/kg, P: 8.33 mL/min/kg)

---

observation_type: intrinsic clearance, rat liver microsomes (mL/min/kg)

In [3]: df
Out[3]:
                                   compound  unit_string  measured
0      CSc1ccc(NC(=O)Cn2nc(C3CC3)ccc2=O)cc1    mL/min/kg       611
1          COc1cc2ncnc(Nc3cccc(O)c3)c2cc1OC    mL/min/kg       154
2  O=C(Nc1cccc2ncccc12)[C@H]1CCCN(S(=O)(=O)c2ccc(F)cc2)C1    mL/min/kg       698

A = O=C1NCCN(C(=O)c2ccc3nccn3c2)C1c1ccccc1C(F)(F)F (stereo not drawn)
B = C/C=C/CC(=O)N1CCC(c2cc(Cc3ccccc3)n[nH]2)CC1
Query :: Hi! Which is lower in terms of intrinsic clearance, rat liver microsomes, the first one A or the second one B ? Field: selected label. Fill in the label of the entry you choose.
Result :: A

1 = Cc1n[nH]c(-c2c(C)c3cc(F)ccc3n2C)n1
2 = Cc1cccc(-n2cnnc2CCCN2CCOCC2)c1
Query :: Compare reported intrinsic clearance, rat liver microsomes values for 1 and 2 . Which is lower? Pick one; state its label.
Result :: 2

---

observation_type: intrinsic clearance, human liver microsomes (mL/min/kg)

In [3]: df
Out[3]:
                                   molecule  measured
0  Cc1nn(C)c(C)c1-c1cc(C(C)(C)C)nc(N(C)C)n1      51.6

I = Cc1cccc(C)c1OCC(=O)N(C)C1(C#N)CCC1
II = Cc1cccc(C(=O)NCC#Cc2ccccc2)n1
Query :: Form: Entry with minimum intrinsic clearance, human liver microsomes (choose one): I / II Respond with the label that goes with your answer.
Result :: I

1 = CCOC(=O)Nc1ccc2c(c1)N(C(=O)CN(CC)CC)c1ccccc1CC2
2 = O=C(C1CCCN(Cc2cc3c(cc2O)OCO3)C1)N1CCOCC1 (configuration not stated)
3 = COc1ccc(F)c(CN2CCC(Cc3noc(C)n3)CC2)c1
Query :: Rank order required: intrinsic clearance, human liver microsomes, descending. # format: label list in the order the request specifies
Result :: 1, 3, 2

1 = O=C(OCc1cc(Cl)ccn1)c1ccc2[nH]c(C(F)F)nc2c1
2 = CN(C)C(=O)COC(=O)Cc1ccc(OC(=O)c2ccc(NC(=N)N)cc2)cc1
Query :: Could you please tell me which of these two has the higher intrinsic clearance, human liver microsomes: 1 or 2 ? Refer to your chosen entry by its label in the reply.
Result :: 1
